# Test system: Murine macrophage-like cells RAW 264.7 and murine L929 fibroblasts
# test.summary: Monocyte/fibroblast co-culture on coated surgical suture material; note: key: 0: not superior to native FA (control); +: Superior to native FA; ++: superior to both; +++: outstanding effect
# Type: cell-based
# measurement.setup: dip-coated suture material, 24 and 48 hours; compared with native FA
# Description: In order to determine immunoreactions to foreign material and its consequence on fibrogenesis, co-cultures of fibroblasts and monocytes were used. Commercially available suture materials (propylene, polyamide, and silk) were dip-coated with corresponding native and nitrated fatty acids. Untreated suture material served as control. […] Supernatants were collected for assays after 24 and 48 hours and analyzed for profibrotic cytokines IL-13, IL-4, and IL-6, TGF-β1, collagen I.
metric: Relative effect on profibrotic cytokines and collagen I on suture material

Known Relative effect on profibrotic cytokines and collagen I on suture material results, listed for orientation:
molecule | recorded.result
CCCCCC=CCC=C(CC=CCC=CCCCC(=O)O)[N+](=O)[O-] | +
CCCCCCCC/C=C(/CCCCCCCC(=O)O)[N+](=O)[O-] [compound 1, 9-nitro cis-oleic acid] | ++
CC/C=C\C/C=C\C/C(=C/C/C=C\C/C=C\CCCCCC(=O)O)[N+](=O)[O-] | +
CCCCCC=CCC=C(C/C=C\CCCCC(=O)O)[N+](=O)[O-] [compound 20, 9-nitro-cis-6,9,12-octadecatrienoic acid] | 0
CCCCCC/C=C(/CCCCCCCC(=O)O)[N+](=O)[O-] | +

Value of measured Relative effect on profibrotic cytokines and collagen I on suture material for the entry "CCCCCC=CCC=C(CC=CC/C=C\CCCC(=O)O)[N+](=O)[O-]" : +

// CCCCCCCC/C=C(/CCCCCCCCCCCC(=O)O)[N+](=O)[O-] [compound 17, 13-nitro-cis-13-docosenoic acid] : Relative effect on profibrotic cytokines and collagen I on suture material value = +

Data origin, for the record: patent US20130039956A1
